biological target: BRM (Homo sapiens, UniProt P51531); construct: made in house; host or cells: High Five insect cells; test: ATPase catalytic activity of BRM, ADP-Glo in vitro biochemical assay; settings: ADP-Glo ATPase assay, 30 nM BRM, 400 μM ATP
Sequence (P51531 whole entry): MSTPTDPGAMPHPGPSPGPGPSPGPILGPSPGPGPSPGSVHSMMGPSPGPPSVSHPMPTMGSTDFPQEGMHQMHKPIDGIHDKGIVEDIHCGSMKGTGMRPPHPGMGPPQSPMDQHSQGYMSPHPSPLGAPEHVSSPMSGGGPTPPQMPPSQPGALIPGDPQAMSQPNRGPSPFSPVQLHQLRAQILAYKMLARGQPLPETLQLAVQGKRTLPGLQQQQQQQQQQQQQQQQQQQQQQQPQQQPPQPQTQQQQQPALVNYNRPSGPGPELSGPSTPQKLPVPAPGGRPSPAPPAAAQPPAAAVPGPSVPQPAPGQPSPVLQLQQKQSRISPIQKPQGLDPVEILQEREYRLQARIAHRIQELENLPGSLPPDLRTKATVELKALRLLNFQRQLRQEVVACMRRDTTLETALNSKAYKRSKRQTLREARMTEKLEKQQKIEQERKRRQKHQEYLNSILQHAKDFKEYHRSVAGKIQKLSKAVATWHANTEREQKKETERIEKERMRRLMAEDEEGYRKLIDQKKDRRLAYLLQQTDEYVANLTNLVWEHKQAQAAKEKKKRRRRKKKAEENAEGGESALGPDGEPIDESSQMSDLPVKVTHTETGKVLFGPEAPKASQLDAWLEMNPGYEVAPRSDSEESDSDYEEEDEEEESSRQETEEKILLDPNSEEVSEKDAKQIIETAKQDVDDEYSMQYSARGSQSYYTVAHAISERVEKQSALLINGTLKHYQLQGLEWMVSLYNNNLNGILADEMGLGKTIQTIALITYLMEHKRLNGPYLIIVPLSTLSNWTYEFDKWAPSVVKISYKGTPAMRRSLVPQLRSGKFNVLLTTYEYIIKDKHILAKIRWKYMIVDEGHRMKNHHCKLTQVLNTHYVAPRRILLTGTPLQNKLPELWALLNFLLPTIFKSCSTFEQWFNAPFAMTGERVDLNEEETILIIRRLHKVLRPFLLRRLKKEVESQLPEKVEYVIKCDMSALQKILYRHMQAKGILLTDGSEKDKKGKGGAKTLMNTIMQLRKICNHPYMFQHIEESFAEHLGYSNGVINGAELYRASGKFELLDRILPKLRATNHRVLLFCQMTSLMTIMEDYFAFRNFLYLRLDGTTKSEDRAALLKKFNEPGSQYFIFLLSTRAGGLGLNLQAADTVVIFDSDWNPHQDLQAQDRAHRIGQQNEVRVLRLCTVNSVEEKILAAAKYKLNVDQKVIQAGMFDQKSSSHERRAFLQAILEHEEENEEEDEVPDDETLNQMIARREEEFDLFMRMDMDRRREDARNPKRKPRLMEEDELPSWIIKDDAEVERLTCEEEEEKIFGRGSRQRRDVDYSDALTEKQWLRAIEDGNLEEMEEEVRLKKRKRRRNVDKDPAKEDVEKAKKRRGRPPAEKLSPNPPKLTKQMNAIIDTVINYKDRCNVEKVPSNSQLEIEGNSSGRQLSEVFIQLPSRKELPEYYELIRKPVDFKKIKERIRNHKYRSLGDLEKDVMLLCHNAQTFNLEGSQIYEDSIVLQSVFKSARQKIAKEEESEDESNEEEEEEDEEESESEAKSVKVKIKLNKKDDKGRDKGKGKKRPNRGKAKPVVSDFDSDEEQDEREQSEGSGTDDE
Threshold 90 nM. IC50 below it: MET. IC50 at it or above: NOT MET.

Prompt line: Please determine if O=C(NCc1cc2nc(-c3ccccc3OCC3CC3)ccc2cn1)c1ccc2c(c1)S(=O)(=O)CCOC2 is below 90 nM in terms of IC50.
Response line: NOT MET

Prompt line: Lab note: confirm whether the reported IC50 for this compound is below 90 nM, equality not counting. compound: C[C@@H]1CN(c2cccc(-c3ccc4cnc(CNC(=O)c5cc(C6CC6)c6c(c5)S(=O)(=O)CCOC6)cc4n3)n2)C[C@H](C)O1
Response line: MET

Prompt line: Is IC50 of COCc1cc2c(nc1C(F)F)N(c1ccc3cnc(CNC(=O)c4ccc5c(c4)S(=O)(=O)CCOC5)cc3n1)CCC2 strictly below 90 nM?
Response line: MET

Prompt line: Record N=S1(=O)CCOCc2ccc(C(=O)NCc3cc4nc(-c5cncc(C6CC6)n5)ccc4cn3)cc21 (centres unmarked) : is its IC50 strictly below 90 nM?
Response line: NOT MET

Prompt line: IC50 under 90 nM? Item: O=C(NCc1ncc2ccc(N3CCOc4cc(C5CC5)cnc43)cc2n1)c1ccc2c(c1)S(=O)(=O)CCOC2
Response line: NOT MET

Prompt line: Report whether reported IC50 is lower than 90 nM (strictly) for O=C(NCc1cc2nc(-c3cccc4c3CCCN4CC(F)F)ccc2cn1)c1ccc2c(c1)S(=O)(=O)CCOC2
Response line: NOT MET

Prompt line: Please indicate whether the reported IC50 of O=C(NCc1cc2nc(-c3cccc(C4CC4)n3)ccc2cn1)c1cnc2c(c1)S(=O)(=O)CCOC2 is strictly below 90 nM.
Response line: MET

Prompt line: IC50 under 90 nM? Item: O=C(NCc1cc2nc(N3CCCc4cnc(OC5CC5)cc43)ccc2cn1)c1ccc2c(c1)S(=O)(=O)CCOC2
Response line: MET

Prompt line: Quick check: IC50 of O=C(NCc1cc2cc(-c3cncc(C4CC4)n3)ccc2cn1)c1cnc2c(c1)S(=O)(=O)CCOC2 under 90 nM?
Response line: MET

Prompt line: Here's an entry: O=C(NCc1cc2nc(-c3cccc(N4CC[C@@H](F)C4)n3)ccc2cn1)c1ccc2c(c1)S(=O)(=O)CCOC2 . Is its IC50 below 90 nM?
Response line: MET

Prompt line: IC50 strictly < 90 nM for this compound? COC1CCOc2c(-c3ccc4cnc(CNC(=O)c5ccc6c(c5)S(=O)(=O)CCOC6)cc4n3)cccc21 (centres unmarked)
Response line: NOT MET

Prompt line: Identify whether the compound COCc1ccc(C(=O)NCc2cc3nc(-c4cncc(C5CC5)n4)ccc3cn2)cc1S(C)(=O)=O records IC50 below 90 nM.
Response line: NOT MET

Prompt line: is_below(IC50, 90 nM) for CS(=O)(=O)c1cc(C(=O)NCc2cc3nc(N4CCCc5cc(C6CC6)cnc54)ccc3cn2)cnc1C(F)F ?
Response line: NOT MET
